The entries below come with measured mass density values attached.
study_conditions: 363.15 K; 5000 kPa; Liquid
metric: mass density (kg/m3)

compound="CCCCCCCC[n+]1ccn(C)c1.F[B-](F)(F)F [1-methyl-3-octylimidazolium tetrafluoroborate]" metric="mass density" readout_value=1061.6
compound="CCCCn1cc[n+](C)c1C.F[P-](F)(F)(F)(F)F [1-butyl-2,3-dimethylimidazolium hexafluorophosphate]" metric="mass density" readout_value=1300.7
compound="CCCCCCCC[n+]1ccn(C)c1.F[P-](F)(F)(F)(F)F [1-octyl-3-methylimidazolium hexafluorophosphate]" metric="mass density" readout_value=1189.7
compound="CCCCn1cc[n+](C)c1.O=S(=O)([O-])C(F)(F)F [1-butyl-3-methylimidazolium trifluoromethanesulfonate]" metric="mass density" readout_value=1250.4
compound="CCCCCCn1cc[n+](C)c1.F[P-](F)(F)(F)(F)F [1-hexyl-3-methylimidazolium hexafluorophosphate]" metric="mass density" readout_value=1244
compound="CCCCn1cc[n+](C)c1.F[B-](F)(F)F [1-butyl-3-methylimidazolium tetrafluoroborate]" metric="mass density" readout_value=1157.5

---

study_conditions: 333.15 K; 100 kPa; Liquid
Recorded measurements of mass density, one per entry
metric: mass density (kg/m3)

compound="CCCCn1cc[n+](C)c1.O=S(=O)([O-])C(F)(F)F [1-butyl-3-methylimidazolium trifluoromethanesulfonate]" unit_label=kg/m3 readout_value=1270.5
compound="CCCCCCCC[n+]1ccn(C)c1.F[P-](F)(F)(F)(F)F [1-octyl-3-methylimidazolium hexafluorophosphate]" unit_label=kg/m3 readout_value=1209.1
compound="CCCCCCn1cc[n+](C)c1.F[P-](F)(F)(F)(F)F [1-hexyl-3-methylimidazolium hexafluorophosphate]" unit_label=kg/m3 readout_value=1264.2

---

study_conditions: 313.15 K; 2000 kPa; Liquid
metric: mass density (kg/m3)

molecule="CCCCCCCC[n+]1ccn(C)c1.F[B-](F)(F)F [1-methyl-3-octylimidazolium tetrafluoroborate]" readout_value=1093.9
molecule="CCCCCCCC[n+]1ccn(C)c1.F[P-](F)(F)(F)(F)F [1-octyl-3-methylimidazolium hexafluorophosphate]" readout_value=1226.5
molecule="CCCCn1cc[n+](C)c1C.F[P-](F)(F)(F)(F)F [1-butyl-2,3-dimethylimidazolium hexafluorophosphate]" readout_value=1340.7
molecule="CCCCCCn1cc[n+](C)c1.F[P-](F)(F)(F)(F)F [1-hexyl-3-methylimidazolium hexafluorophosphate]" readout_value=1282.6

---

study_conditions: 373.15 K; 1000 kPa; Liquid
Numbers after ± are expanded uncertainties.
metric: mass density

compound="CCCCCCCC[n+]1ccn(C)c1.F[P-](F)(F)(F)(F)F [1-octyl-3-methylimidazolium hexafluorophosphate]" readout_value="1179.9 ± 2.4 kg/m3"
compound="CCCCn1cc[n+](C)c1C.F[P-](F)(F)(F)(F)F [1-butyl-2,3-dimethylimidazolium hexafluorophosphate]" readout_value="1291.2 ± 3.2 kg/m3"
compound="CCCCCCn1cc[n+](C)c1.F[P-](F)(F)(F)(F)F [1-hexyl-3-methylimidazolium hexafluorophosphate]" readout_value="1234.1 ± 2.8 kg/m3"
compound="CCCCn1cc[n+](C)c1.F[B-](F)(F)F [1-butyl-3-methylimidazolium tetrafluoroborate]" readout_value="1148.8 ± 2.2 kg/m3"

---

study_conditions: 333.15 K; 10000 kPa; Liquid
# mass density annotations
metric: mass density (kg/m3)

compound="CCCCCCn1cc[n+](C)c1.F[P-](F)(F)(F)(F)F [1-hexyl-3-methylimidazolium hexafluorophosphate]" readout_value=1270.3
compound="CCCCCCCC[n+]1ccn(C)c1.F[B-](F)(F)F [1-methyl-3-octylimidazolium tetrafluoroborate]" readout_value=1083.5
compound="CCCCCCCC[n+]1ccn(C)c1.F[P-](F)(F)(F)(F)F [1-octyl-3-methylimidazolium hexafluorophosphate]" readout_value=1215.1
compound="CCCCn1cc[n+](C)c1.F[B-](F)(F)F [1-butyl-3-methylimidazolium tetrafluoroborate]" readout_value=1181
